test: Metabolic stability in mouse liver microsomes assessed as compound remaining at 3 uM after 10 mins; assay type: ADME, Microsome; details: liver microsomes, read-out: Stability
readout label: remaining at 10 min, 3 µM (%)

I = CNC(=O)CN1Cc2nc(C)c(CN)c(-c3ccc(Cl)cc3Cl)c2C1=O
II = CCN(CC)C(=O)[C@@H](C)N1Cc2nc(C)c(CN)c(-c3ccc(Cl)cc3Cl)c2C1=O
*Q* Kindly identify the item with the lower remaining at 10 min, 3 µM figure among these two: I and II Kindly state the label of the option you pick.
*A* II

---

assay: Permeability from basolateral to apical side in human Caco2 cells at pH 7.4; type: ADME, cell-based; conditions: Caco-2, pH 7.4, read-out: permeability
readout label: Papp B→A (×10⁻⁶ cm/s)
Answer in ×10⁻⁶ cm/s, number only, no unit symbol.

*Q* Could you share which Papp B→A value was measured for Cc1nc2c(c(-c3ccc(Cl)cc3Cl)c1CN)C(=O)N(CC(=O)N(C)C)C2 (single isomer, unassigned; atropisomer) ?
*A* 13.1
